target: the molecule itself; assay: SEC; Superose 6 Increase 10/300 GL; 50 mM Tris-HCl (pH 8.0), 300 mM NaCl, 10 mM MgCl2; oligomeric state calculated from elution volumes of proteins of known size
Catalogue of proteins with associated stoichiometry N
Keep the answer to the number alone.

Examples with answers:
[[record]]
protein = "KpUGP D73N (enzyme, UDP-glucose pyrophosphorylase (galU gene product) of K. pneumoniae DSM 30104; mutant of Strep-KpUGP; tag as in m1; no cleavage described) MAALNSKVRKAVIPVAGLGTRMLPATKAIPKEMLPLVDKPLIQYVVNECIAAGITEIVLVTHSSKNSIENHFNTSFELEAMLEKRVKRQLLEEVQSICPPHVTIMQVRQGLAKGLGHAVLCAHPVVGDEPVAVILPDVILDEYESDLSRDNLAEMISRFDETGASQIMVEPVEDVTAYGVVDCKGESLKPGESVPMVGVVEKPKADVAPSNLAVVGRYVLSADIWPLLAKTPPGAGDEIQLTDAIDMLIEKETVEAYHMKGKSHDCGNKLGYMQAFVEYGIRHKTLGDDFKAWLETAVAK"
reported_endpoint = "stoichiometry N"
test_result = 2.4

[[record]]
protein = "KpUGP K10A (enzyme, UDP-glucose pyrophosphorylase (galU gene product) of K. pneumoniae DSM 30104; mutant of Strep-KpUGP; tag as in m1; no cleavage described) MAALNSKVRAAVIPVAGLGTRMLPATKAIPKEMLPLVDKPLIQYVVNECIAAGITEIVLVTHSSKNSIENHFDTSFELEAMLEKRVKRQLLEEVQSICPPHVTIMQVRQGLAKGLGHAVLCAHPVVGDEPVAVILPDVILDEYESDLSRDNLAEMISRFDETGASQIMVEPVEDVTAYGVVDCKGESLKPGESVPMVGVVEKPKADVAPSNLAVVGRYVLSADIWPLLAKTPPGAGDEIQLTDAIDMLIEKETVEAYHMKGKSHDCGNKLGYMQAFVEYGIRHKTLGDDFKAWLETAVAK"
reported_endpoint = "stoichiometry N"
test_result = 3.1


Kindly consider the entry below.
# lookup: stoichiometry N of KpUGP E69A (enzyme, UDP-glucose pyrophosphorylase (galU gene product) of K. pneumoniae DSM 30104; mutant of Strep-KpUGP; tag as in m1; no cleavage described) MAALNSKVRKAVIPVAGLGTRMLPATKAIPKEMLPLVDKPLIQYVVNECIAAGITEIVLVTHSSKNSIANHFDTSFELEAMLEKRVKRQLLEEVQSICPPHVTIMQVRQGLAKGLGHAVLCAHPVVGDEPVAVILPDVILDEYESDLSRDNLAEMISRFDETGASQIMVEPVEDVTAYGVVDCKGESLKPGESVPMVGVVEKPKADVAPSNLAVVGRYVLSADIWPLLAKTPPGAGDEIQLTDAIDMLIEKETVEAYHMKGKSHDCGNKLGYMQAFVEYGIRHKTLGDDFKAWLETAVAK
4.4

This collection of values is drawn from paper PMC11796359.
